- Assay system: human PD-L1 expressed on cell surface (human, UniProt Q9NZQ7 19-290)
- Sequence (Q9NZQ7 19-290 limits assumed): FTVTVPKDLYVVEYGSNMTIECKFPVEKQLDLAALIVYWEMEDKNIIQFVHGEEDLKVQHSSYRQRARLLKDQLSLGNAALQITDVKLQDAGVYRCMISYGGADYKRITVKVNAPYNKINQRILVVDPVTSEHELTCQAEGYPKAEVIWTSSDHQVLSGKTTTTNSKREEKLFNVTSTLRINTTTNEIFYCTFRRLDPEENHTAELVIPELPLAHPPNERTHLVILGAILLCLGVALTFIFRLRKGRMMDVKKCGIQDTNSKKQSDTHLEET
- Test summary: cell-based or functional assay
Measured metric: Internalization (%), FACS, 1 µg/ml, 2 h

{"Binder": "57B10 (antibody, human IgG1, V domains shown) VH: QEQLEESGGGLVQPEGSLTLTCTASGFSFSDDYYMSWVRQAPGKGLEWIASIYTGSLNTYYATWAKGRFTISLTSSTTVTLQMTSLTAADTATYFCARRNKNADWGHFDLWGPGTLVTVSS VL: YDMTQTPASVEVAVGGTVTIKCQASQSISTALAWYQQKPGQPPKLLIYAASTLASGVPSRFRGSGSGTDFTLTISDLECADAATYYCQQGWTVSSLDNAFGGGTEVVAM", "Measured metric": "Internalization (%), FACS, 1 µg/ml, 2 h", "Value reported": 12.7}
{"Binder": "28B3 (antibody, human IgG1, V domains shown) VH: QSVEESGGRLVTPGTPLTLSCTASGFSLSSYYMIWVRQAPGKGLEYIGYVYTGSGNTWYASWAKGRFAISKASTTVDLMITSPTTEDTATYFCASGADGVYDWGWDIWGPGTLVTVSL VL: DIVMTQTPASVEAAVGDTVTIKCQASQSIYSLLAWYQQKPGQRPKLLIAGASNLESGVPSRFSGSGSGTEYTLTISALECADAATYYCQNNYDSGRIYGLAFGGGTEVVVK", "Measured metric": "Internalization (%), FACS, 1 µg/ml, 2 h", "Value reported": 15.3}
{"Binder": "74F4 (antibody, human IgG1, V domains shown) VH: QEQLEESGGGLVQPEGSLTLTCTASGFSFSGDYYMSWVRQAPGKGLEWIASIYTGSLNTYYATWAKGRFTISLTSSTTVTLQMTSLTAADTATYFCARRNKNADYGHFDLWGPGTLVTVSS VL: YDMTQTPASVEVAVGGTVTIKCQASQSINDRLAWYQQSPGQPPKLLIYGASTLASGVPSRFKGSGSGTDFTLTISDLECADAATYYCQQGWTVSSLDNAFGGGTEVVAK", "Measured metric": "Internalization (%), FACS, 1 µg/ml, 2 h", "Value reported": 19.5}
